Test system: Hepatotoxicity
Experiment: FDA HLAED, liver enzyme composite activity
Settings: human, Liver
parameter.measured: Composite Activity - Score

Known results for molecules:
> print(dat)
                                   molecule  observed.result
1  Clc1ccc(CSC(Cn2ccnc2)c2ccc(Cl)cc2Cl)cc1 (centres undefined)         Inactive
2  Nc1ccn([C@@H]2O[C@H](CO)[C@@H](O)[C@@H]2O)c(=O)n1           Active
3  CC1(C)S[C@@H]2[C@H](NC(=O)[C@H](NC(=O)N3CCN(S(C)(=O)=O)C3=O)c3ccccc3)C(=O)N2[C@H]1C(=O)O         Inactive
4  CC(C)(C)NC(=O)[C@@H]1C[C@@H]2CCCC[C@@H]2CN1C[C@@H](O)[C@H](Cc1ccccc1)NC(=O)[C@H](CC(N)=O)NC(=O)c1ccc2ccccc2n1         Inactive
5  CC(C)NCC(O)COc1ccc(CCOCC2CC2)cc1 (centres undefined)         Inactive

Hey, can you go through the list below and give me Composite Activity - Score for every item?
1. Brc1c(NC2=NCCN2)ccc2nccnc12
2. CC(C)n1c(/C=C/C(O)CC(O)CC(=O)O)c(-c2ccc(F)cc2)c2ccccc21 (centres undefined)
3. O=C1CN(/N=C/c2ccc([N+](=O)[O-])o2)C(=O)N1
4. CC(C)NCC(O)COc1ccc(CC(N)=O)cc1 (centres undefined)

Inactive
Inactive
Active
Inactive

Hey, can you go through the list below and give me Composite Activity - Score for every item?
1. CC(C)c1c(C(=O)Nc2ccccc2)c(-c2ccccc2)c(-c2ccc(F)cc2)n1CC[C@@H](O)C[C@@H](O)CC(=O)O
2. CC(C)(C)NCC(O)c1ccc(O)c(CO)c1 (centres undefined)
3. Nc1c2c(nc3ccccc13)CCCC2
4. CCn1cc(C(=O)O)c(=O)c2cc(F)c(N3CCNCC3)cc21
5. NCCCC(O)(P(=O)(O)O)P(=O)(O)O
6. O=C(O)Cc1ccccc1Nc1c(Cl)cccc1Cl
7. O=C(O)COCCN1CCN(C(c2ccccc2)c2ccc(Cl)cc2)CC1 (centres undefined)

1. Active
2. Inactive
3. Active
4. Active
5. Inactive
6. Active
7. Inactive

Hey, can you go through the list below and give me Composite Activity - Score for every item?
1. O=C(O)c1cc(-c2ccc(F)cc2F)ccc1O
2. Clc1cccc(Cl)c1N=C1NCCN1
3. Sc1ncnc2nc[nH]c12 [MERCAPTOPURINE ANHYDROUS]

["Inactive", "Active", "Active"]

* * *

Tested on: Hepatotoxicity
Assay: FDA HLAED, serum glutamic oxaloacetic transaminase (SGOT) increase
Details: human
parameter.measured: SGOT Increase - Number of Reports

molecule	SGOT Increase - Number of Reports
CC1Cc2ccccc2N1NC(=O)c1ccc(Cl)c(S(N)(=O)=O)c1 (stereo unspecified) [INDAPAMIDE]	< 4
NCCC(O)(P(=O)(O)O)P(=O)(O)O	< 4
CN(C)C(=N)N=C(N)N	< 4
Fc1ccccc1C1=NCC(=S)N(CC(F)(F)F)c2ccc(Cl)cc21	< 4
CN1CCN(C2=Nc3ccccc3Oc3ccc(Cl)cc32)CC1	>= 4

Hey, can you go through the list below and give me SGOT Increase - Number of Reports for every item?
1. Cn1cc([S+](C)[O-])c(=O)c2ccc(F)cc21 (stereo unspecified)
2. COC(=O)C1=C(C)NC(C)=C(C(=O)OCCN(C)Cc2ccccc2)C1c1cccc([N+](=O)[O-])c1 (stereo unspecified)
3. CC(C)(C)NC[C@H](O)COc1ccccc1C1CCCC1

["< 4", ">= 4", "< 4"]

Hey, can you go through the list below and give me SGOT Increase - Number of Reports for every item?
1. CO[C@@]1(NC(=O)CSCC#N)C(=O)N2C(C(=O)O)=C(CSc3nnnn3C)CS[C@@H]21
2. COc1cc([C@@H]2c3cc4c(cc3[C@@H](O[C@@H]3O[C@@H]5CO[C@@H](C)O[C@H]5[C@H](O)[C@H]3O)[C@H]3COC(=O)[C@H]23)OCO4)cc(OC)c1O [ETOPOSIDE]

["< 4", "< 4"]

Hey, can you go through the list below and give me SGOT Increase - Number of Reports for every item?
1. O=C(NCC1CCCCN1)c1cc(OCC(F)(F)F)ccc1OCC(F)(F)F (stereo unspecified) [FLECAINIDE]
2. CC(CCc1ccc(O)cc1)NCCc1ccc(O)c(O)c1 (stereo unspecified)
3. CCC(=O)O[C@H]1[C@H](O[C@@H]2[C@@H](C)[C@H](O[C@H]3C[C@@](C)(OC)[C@@H](O)[C@H](C)O3)[C@@H](C)C(=O)O[C@H](CC)[C@@](C)(O)[C@H](O)[C@@H](C)C(=O)[C@H](C)C[C@@]2(C)O)O[C@H](C)C[C@@H]1N(C)C [ERYTHROMYCIN PROPIONATE]

1: >= 4; 2: < 4; 3: >= 4

Hey, can you go through the list below and give me SGOT Increase - Number of Reports for every item?
1. CO/N=C(\C(=O)N[C@@H]1C(=O)N2C(C(=O)OC(C)OC(C)=O)=C(COC(N)=O)CS[C@H]12)c1ccco1 (stereo partly specified)
2. CCOC(=O)[C@H](CCc1ccccc1)N[C@@H](C)C(=O)N1Cc2ccccc2C[C@H]1C(=O)O
3. COc1cc2nc(N3CCN(C(=O)C4COc5ccccc5O4)CC3)nc(N)c2cc1OC (stereo unspecified)

< 4
>= 4
< 4

* * *

Test system: Hepatotoxicity
Assay: FDA HLAED, lactate dehydrogenase (LDH) increase
Details: human
parameter.measured: LDH Increase - Activity Score

Known results for compounds:
compound	measured.on	LDH Increase - Activity Score
Nc1cc(N2CCCCC2)nc(N)[n+]1[O-]	Hepatotoxicity	Inactive
CNC(=C[N+](=O)[O-])NCCSCc1ccc(CN(C)C)o1	Hepatotoxicity	Inactive
CC(=O)[C@]1(O)Cc2c(O)c3c(c(O)c2[C@@H](O[C@H]2C[C@H](N)[C@H](O)[C@H](C)O2)C1)C(=O)c1ccccc1C3=O	Hepatotoxicity	Inactive
O=P1(NCCCl)OCCCN1CCCl (stereo not drawn) [IFOSFAMIDE]	Hepatotoxicity	Inactive
c1ccc([C@H]2CN3CCSC3=N2)cc1	Hepatotoxicity	Active
NCCNCCNCCN	Hepatotoxicity	Inactive
CCOC(=O)[C@H](CCc1ccccc1)N[C@@H](C)C(=O)N1[C@H](C(=O)O)C[C@@H]2CCC[C@@H]21	Hepatotoxicity	Inactive
C=C1/C(=C\C=C2/CCC[C@]3(C)[C@@H]([C@H](C)CCCC(C)(C)O)CC[C@@H]23)C[C@@H](O)C[C@@H]1O	Hepatotoxicity	Inactive

Hey, can you go through the list below and give me LDH Increase - Activity Score for every item?
1. CCC(=O)OCC(=O)[C@@]1(OC(=O)CC)[C@H](C)C[C@H]2[C@H]3[C@H]([C@@H](O)C[C@@]21C)[C@@]1(C)C=CC(=O)C=C1C[C@H]3Cl [ALCLOMETASONE DIPROPIONATE]
2. Clc1ccc2c(c1)C(c1ccccc1)=NCc1nncn1-2
3. CCOC(=O)OC(C)OC(=O)[C@@H]1N2C(=O)[C@@H](NC(=O)[C@H](N)c3ccccc3)[C@H]2SC1(C)C (stereo partly drawn)
4. Cc1ccc(Cl)c(Nc2ccccc2C(=O)O)c1Cl
5. CCCCC[C@H](O)/C=C/[C@H]1[C@H](O)CC(=O)[C@@H]1CCCCCCC(=O)O
6. CCCCC(=O)O[C@H]1CC[C@H]2[C@@H]3CCc4cc(O)ccc4[C@H]3CC[C@]12C [ESTRADIOL VALERATE]

["Inactive", "Inactive", "Inactive", "Inactive", "Inactive", "Inactive"]

Hey, can you go through the list below and give me LDH Increase - Activity Score for every item?
1. NCC1(CC(=O)O)CCCCC1
2. O=C(O)P(=O)(O)O
3. Cc1ccnc2c1NC(=O)c1cccnc1N2C1CC1
4. OCc1cc(C(O)CNCCCCCCOCCCCc2ccccc2)ccc1O (stereo not drawn)

["Inactive", "Active", "Active", "Inactive"]

* * *

System: Hepatotoxicity
Experiment: FDA HLAED, alkaline phosphatase increase
Details: human
For each entry below, report its Alkaline Phosphatase Increase - Index Value value.

Known results for compounds:
> print(dat)
                                   compound  observed.result
1  COc1cc([C@@H]2c3cc4c(cc3[C@H](O)[C@H]3COC(=O)[C@H]23)OCO4)cc(OC)c1OC                0
2                    O=S(=O)([O-])CCS.[Na+]                0
3  COc1ccc(C(=O)Nc2ccccc2CCC2CCCCN2C)cc1 (stereo not given) [ENCAINIDE]              3.6
4  CC(C)n1c(/C=C/C(O)CC(O)CC(=O)O)c(-c2ccc(F)cc2)c2ccccc21 (stereo not given)              0.5

// next item, Alkaline Phosphatase Increase - Index Value requested
# lookup: Cc1cccc(C)c1OCC(C)N (stereo not given) on Hepatotoxicity, Alkaline Phosphatase Increase - Index Value = 3.1
